TESTED_ON: ARHGEF12, Q9NZN5-2
Sequence (Q9NZN5 other isoform, or with tags, fused parts or gaps): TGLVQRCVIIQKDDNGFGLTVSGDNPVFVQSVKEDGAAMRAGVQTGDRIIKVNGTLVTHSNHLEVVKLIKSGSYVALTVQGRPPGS
RUN_DESCRIPTION: holdup assay
Set-up: key: below the threshold = too weak to quantify, mostly under pKd 3.1 to 4
CONDITION: plain residues with an end cap or a label only (N-terminal biotin on a linker: ahx)
OUTCOME_MEASURE: pKd

BINDER	OUTCOME_MEASURE	RESULT
APSRKLNTEI [TIAM1, Q13009]	pKd	3.76
QPRTWLQSPV [RTKN, Q9BST9]	pKd	3.99
HTHSYIETHV [CNKSR2, Q8WXI2]	pKd	3.88
EKQAKGDTEF [CACYBP, Q9HB71]	pKd	below the threshold
TESNLQTSSC [CGN, Q9P2M7]	pKd	3.71
QNTDDVQTSF [ACE2, Q9BYF1]	pKd	3.65
TQKFRASTAL [FRMPD1, Q5SYB0]	pKd	4.79
TEAKLTETNA [MYO18A, Q92614]	pKd	below the threshold
QDEKVKESYV [ABCA1, O95477]	pKd	4.27
